Recorded values, source ChEMBL document CHEMBL4041548.

- assayMethodText: Volume of distribution at steady state in BALB/c mouse at 5 mg/kg, iv as bolus administration by LC-MS/MS analysis
- Type: ADME, organism-based
- conditionContext: in vivo, read-out: Vdss
parameterMeasured: Vd (L/kg)

[[record]]
smilesstructure = "CC(C)(C)NC(=O)N(CCCCCCN1C[C@H](O)[C@@H](O)[C@H](O)[C@H]1CO)C1CCCCC1"
parametermeasured = "Vd"
val = 2.13


---

- assayMethodText: Stability in simulated gastric fluid assessed as parent compound remaining at 5 uM measured after 4 hrs by LC-MS/MS analysis
parameterMeasured: Stability

[[record]]
smilesstructure = "CC(C)C(=O)OC[C@@H]1[C@@H](OC(=O)C(C)C)[C@H](OC(=O)C(C)C)[C@@H](OC(=O)C(C)C)CN1CCCCCCN(C(=O)NC(C)(C)C)C1CCCCC1"
parametermeasured = "Stability"
val = "108%"

[[record]]
smilesstructure = "CCCC(=O)OC[C@@H]1[C@@H](OC(=O)CCC)[C@H](OC(=O)CCC)[C@@H](OC(=O)CCC)CN1CCCCCCN(C(=O)NC(C)(C)C)C1CCCCC1"
parametermeasured = "Stability"
val = "89%"

[[record]]
smilesstructure = "CC(C)(C)NC(=O)N(CCCCCCN1C[C@H](O)[C@@H](O)[C@H](O)[C@H]1CO)C1CCCCC1"
parametermeasured = "Stability"
val = "109%"

[[record]]
smilesstructure = "CC(=O)OC[C@@H]1[C@@H](OC(C)=O)[C@H](OC(C)=O)[C@@H](OC(C)=O)CN1CCCCCCN(C(=O)NC(C)(C)C)C1CCCCC1"
parametermeasured = "Stability"
val = "94%"


---

- assayMethodText: Metabolic stability in pooled human liver microsomes assessed as parent compound remaining at 200 uM measured after 60 mins by LC-MS/MS analysis
- Assay type: ADME, microsome
- conditionContext: liver microsomes, read-out: Stability
parameterMeasured: remaining at 1 h, 200 µM

[[record]]
smilesstructure = "CCCC(=O)OC[C@@H]1[C@@H](OC(=O)CCC)[C@H](OC(=O)CCC)[C@@H](OC(=O)CCC)CN1CCCCCCN(C(=O)NC(C)(C)C)C1CCCCC1"
parametermeasured = "remaining at 1 h, 200 µM"
val = "4%"

[[record]]
smilesstructure = "CC(=O)OC[C@@H]1[C@@H](OC(C)=O)[C@H](OC(C)=O)[C@@H](OC(C)=O)CN1CCCCCCN(C(=O)NC(C)(C)C)C1CCCCC1"
parametermeasured = "remaining at 1 h, 200 µM"
val = "0%"

[[record]]
smilesstructure = "CC(C)C(=O)OC[C@@H]1[C@@H](OC(=O)C(C)C)[C@H](OC(=O)C(C)C)[C@@H](OC(=O)C(C)C)CN1CCCCCCN(C(=O)NC(C)(C)C)C1CCCCC1"
parametermeasured = "remaining at 1 h, 200 µM"
val = "2%"


---

- assayMethodText: Cmax in BALB/c mouse at 100 mg/kg, po administered as single dose by LC-MS/MS analysis
- Type: ADME, organism-based
- Design: dose 100 mg/kg, route oral
- conditionContext: in vivo
parameterMeasured: Cmax (ng/mL)

[[record]]
smilesstructure = "CC(C)(C)NC(=O)N(CCCCCCN1C[C@H](O)[C@@H](O)[C@H](O)[C@H]1CO)C1CCCCC1"
val = 915

